Cited source for all entries: paper PMC9090415

Target: P. falciparum apicoplast DNA polymerase (Pf-apPOL) (Plasmodium falciparum, UniProt Q8ILY1)
Sequence (Q8ILY1 entry or part of it): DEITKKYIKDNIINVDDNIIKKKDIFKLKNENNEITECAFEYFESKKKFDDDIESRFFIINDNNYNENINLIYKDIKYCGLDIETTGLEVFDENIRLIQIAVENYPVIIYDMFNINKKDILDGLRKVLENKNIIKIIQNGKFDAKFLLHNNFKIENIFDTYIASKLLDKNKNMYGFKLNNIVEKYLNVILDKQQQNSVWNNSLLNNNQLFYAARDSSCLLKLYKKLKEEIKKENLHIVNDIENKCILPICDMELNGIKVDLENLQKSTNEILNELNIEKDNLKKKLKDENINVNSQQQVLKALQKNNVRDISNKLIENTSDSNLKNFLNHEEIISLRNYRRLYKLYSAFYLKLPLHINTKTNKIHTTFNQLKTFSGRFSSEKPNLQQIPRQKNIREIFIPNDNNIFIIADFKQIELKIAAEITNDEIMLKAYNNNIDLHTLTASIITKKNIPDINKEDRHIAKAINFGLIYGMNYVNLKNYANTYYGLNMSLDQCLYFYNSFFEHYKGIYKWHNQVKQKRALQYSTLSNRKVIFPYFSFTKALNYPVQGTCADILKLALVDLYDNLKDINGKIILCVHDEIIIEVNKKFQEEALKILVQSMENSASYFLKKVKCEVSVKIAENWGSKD
Assay: Fluorescence-based high-throughput DNA polymerase assay (molecular beacon), primary screen and dose-response;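 for % inhibition Apol 40': compound concentration given in µM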
Type: biochemical
Conditions: DRC-2; 40'; concentration 2.5
Text: The HT assay employs a molecular beacon, a stem-loop DNA template with a Cy3 dye and the Black Hole Quencher on the 3′ and 5′ ends of the DNA, respectively. Pf-apPOL concentration is based on a calculated absorptivity of ε280 = 56750 M^−1 cm^−1. […] To identify apPOL inhibitors we utilised our previously developed high-throughput DNA polymerase assay. […] The assay accurately recapitulates the kinetic behaviour of apPOL, as measured through more conventional low-throughput gel-based assays. […]
Lab note: anything with % inhibition Apol 40' at or over 8% counts as Yes; the rest go in No.

COMPOUND | ASSAYED_TARGET | CLASSIFICATION
COc1ccc(NC(=O)Cn2ccc3c(=O)[nH]ccc32)cc1Cl [Molecule 10, COc1ccc(cc1Cl)NC(=O)Cn1ccc2c1cc[nH]c2=O] | P. falciparum apicoplast DNA polymerase (Pf-apPOL) (Plasmodium falciparum, UniProt Q8ILY1) | Yes

For this compound, is measured % inhibition Apol 40' 8% or higher? O=C(NNC(=O)c1ccc(Cl)cc1)C(=O)NNC(=O)c1ccc(Cl)cc1 No

For this compound, is measured % inhibition Apol 40' 8% or higher? O=C(Nc1cccc(Cl)c1)Nc1nnc(-c2ccncc2)s1 Yes

For this compound, is measured % inhibition Apol 40' 8% or higher? CCOC(=O)C(NCc1ccco1)(NC(=O)c1ccco1)C(F)(F)F (centres unmarked) No

For this compound, is measured % inhibition Apol 40' 8% or higher? Cc1ccc(C(=O)/C=C/C=C/C=C/N(C)C)o1 No

For this compound, is measured % inhibition Apol 40' 8% or higher? O=C(NCC1CCN(C2CCCC2)CC1)C(=O)NC1CCCC1 No

====

Catalogue of compounds with associated % inhibition Apo pol 10'
Biological target: UniProtKB Q8ILY1
Assay: Fluorescence-based high-throughput DNA polymerase assay (molecular beacon), primary screen and dose-response
Format: biochemical
Settings: DRC-1; 10'; concentration 2.5
Respond with the bare value in %.

Consider the following illustrative entries.
COMPOUND | % inhibition Apo pol 10' (%)
COc1ccc(-c2n[nH]cc2Oc2ccc(Cl)cc2)c(O)c1 | 13.0965
O=C(Cn1ccc2c(=O)[nH]ccc21)Nc1cccc(Cl)c1 [Molecule 23, O=C(Cn1ccc2c1cc[nH]c2=O)Nc1cccc(c1)Cl] | 1.228
Cc1ccc(CCNC(=O)c2cnn3c(O)c(Cc4ccccc4F)c(C)nc23)cc1 | -13.7377

Below: the item to evaluate.
Value lookup for % inhibition Apo pol 10'; key = Oc1ccc(N=Nc2ccccc2)c(O)c1 10.9556

====

Molecular target: P. falciparum apicoplast DNA polymerase (Pf-apPOL) (Plasmodium falciparum)
Assay: Fluorescence-based high-throughput DNA polymerase assay (molecular beacon), primary screen and dose-response
Format: biochemical
Settings: DRC-2, 90', concentration 10
ENDPOINT_LABEL: % inhibition ApPOL 90' (%)
Respond with the bare value in %.

Consider the following illustrative entries.
COMPOUND | UNIT_DESCRIPTOR | % inhibition ApPOL 90'
O=C(O)c1c(F)c(F)c(-c2c(F)c(F)c(C(=O)O)c(F)c2F)c(F)c1F [KU0008974] | % | 21
CN(C)C=CC(=O)c1ccccn1 [Molecule 64, CN(C=CC(=O)c1ccccn1)C] | % | 21
COc1ccc2c(c1)CCc1c-2nc2ccc(Br)cc2c1C(=O)O [KU0059417] | % | 31
O=C(O)CC1=NN(c2cccc([N+](=O)[O-])c2)C(=O)C1 [KU0100531] | % | 24

Value lookup for % inhibition ApPOL 90'; key = CO/N=C(\C(=O)N[C@@H]1C(=O)N2C(C(=O)[O-])=C(CSc3nc(=O)c([O-])nn3C)CSC12)c1csc(N)n1.[Na+].[Na+] (stereo partly drawn) [Molecule 83] 1.87

Value lookup for % inhibition ApPOL 90'; key = CSCCC(C)(O)CNC(=O)C1CC1 (stereo not drawn) [KU0200150] 27

Value lookup for % inhibition ApPOL 90'; key = Oc1ccc(N=Nc2ccccc2)c(O)c1 [Molecule 80, Oc1ccc(c(c1)O)N=Nc1ccccc1] 21

Value lookup for % inhibition ApPOL 90'; key = CN(C)C=C1SCc2ccccc2C1=O [Molecule 77, CN(C=C1SCc2c(C1=O)cccc2)C] 8

Value lookup for % inhibition ApPOL 90'; key = O=C(Nc1nnc(-c2ccno2)o1)c1ccc2c(c1)OCO2 [KU0171343] 11

====

Molecular target: P. falciparum apicoplast DNA polymerase (Pf-apPOL) (Plasmodium falciparum, UniProt Q8ILY1)
Assay: Fluorescence-based high-throughput DNA polymerase assay (molecular beacon), primary screen and dose-response;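 for % inhibition apPOL 180': test concentration in µM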
Type: biochemical
Details: DRC-1; 180'; concentration 40
The following ranges of % inhibition apPOL 180' define the classes used here: small value = under 50%, mid value = from 50% up to 70%, large value = 70% and over

Example entries and their recorded answers appear below.
COMPOUND | ASSAYED_TARGET | CLASSIFICATION
COc1cc(/C=C2\S/C(=N/C(C)=O)NC2=O)cc(Br)c1OCC(=O)O [KU0057841] | P. falciparum apicoplast DNA polymerase (Pf-apPOL) (Plasmodium falciparum, UniProt Q8ILY1) | small value
COc1ccc(NC(=O)Cn2ccc3c(=O)[nH]ccc32)cc1Cl [Molecule 10, COc1ccc(cc1Cl)NC(=O)Cn1ccc2c1cc[nH]c2=O] | P. falciparum apicoplast DNA polymerase (Pf-apPOL) (Plasmodium falciparum, UniProt Q8ILY1) | large value
COc1cc(NC(=O)c2ccccc2)c(OC)cc1NC(=O)Cc1cccs1 [KU0032113] | P. falciparum apicoplast DNA polymerase (Pf-apPOL) (Plasmodium falciparum, UniProt Q8ILY1) | large value
Cc1ccc(NC(=O)Cn2ccc3c(=O)[nH]ccc32)cc1F [Molecule 48, O=C(Cn1ccc2c1cc[nH]c2=O)Nc1ccc(c(c1)F)C] | P. falciparum apicoplast DNA polymerase (Pf-apPOL) (Plasmodium falciparum, UniProt Q8ILY1) | small value
O=C(Nc1nnc(-c2ccno2)o1)c1ccc2ncsc2c1 [Molecule 62, O=C(c1ccc2c(c1)scn2)Nc1nnc(o1)c1ccno1] | P. falciparum apicoplast DNA polymerase (Pf-apPOL) (Plasmodium falciparum, UniProt Q8ILY1) | small value
COc1ccc(NC(=O)Cn2ccc3c(=O)[nH]ccc32)cc1 [Molecule 13, COc1ccc(cc1)NC(=O)Cn1ccc2c1cc[nH]c2=O] | P. falciparum apicoplast DNA polymerase (Pf-apPOL) (Plasmodium falciparum, UniProt Q8ILY1) | large value

Field: class (% inhibition apPOL 180') — entry: Cn1nc(C(=O)N2CCc3c(nc4cc(-c5ccccc5)[nH]n4c3=O)C2)c2ccccc21 [Molecule 18] small value

Field: class (% inhibition apPOL 180') — entry: Cc1cccc2c(C(=O)NC(C)C)cc(N(C)C)nc12 [Molecule 47, CC(NC(=O)c1cc(nc2c1cccc2C)N(C)C)C] mid value

Field: class (% inhibition apPOL 180') — entry: O=c1[nH]c2ccc([N+](=O)[O-])cc2c(-c2ccccc2)c1Sc1nc2ccccc2o1 [KU0067471] small value

Field: class (% inhibition apPOL 180') — entry: Cc1cccc(CC(=O)N2CCc3c(nc4cc(-c5ccccc5)[nH]n4c3=O)C2)c1 [Molecule 12] large value

====

Catalogue of compounds with associated % inhibition T4 180' 2.5
Target: bacteriophage T4 DNA polymerase (Enterobacteria phage T4, UniProt P04415)
Construct: made in house
Sequence (P04415 whole entry): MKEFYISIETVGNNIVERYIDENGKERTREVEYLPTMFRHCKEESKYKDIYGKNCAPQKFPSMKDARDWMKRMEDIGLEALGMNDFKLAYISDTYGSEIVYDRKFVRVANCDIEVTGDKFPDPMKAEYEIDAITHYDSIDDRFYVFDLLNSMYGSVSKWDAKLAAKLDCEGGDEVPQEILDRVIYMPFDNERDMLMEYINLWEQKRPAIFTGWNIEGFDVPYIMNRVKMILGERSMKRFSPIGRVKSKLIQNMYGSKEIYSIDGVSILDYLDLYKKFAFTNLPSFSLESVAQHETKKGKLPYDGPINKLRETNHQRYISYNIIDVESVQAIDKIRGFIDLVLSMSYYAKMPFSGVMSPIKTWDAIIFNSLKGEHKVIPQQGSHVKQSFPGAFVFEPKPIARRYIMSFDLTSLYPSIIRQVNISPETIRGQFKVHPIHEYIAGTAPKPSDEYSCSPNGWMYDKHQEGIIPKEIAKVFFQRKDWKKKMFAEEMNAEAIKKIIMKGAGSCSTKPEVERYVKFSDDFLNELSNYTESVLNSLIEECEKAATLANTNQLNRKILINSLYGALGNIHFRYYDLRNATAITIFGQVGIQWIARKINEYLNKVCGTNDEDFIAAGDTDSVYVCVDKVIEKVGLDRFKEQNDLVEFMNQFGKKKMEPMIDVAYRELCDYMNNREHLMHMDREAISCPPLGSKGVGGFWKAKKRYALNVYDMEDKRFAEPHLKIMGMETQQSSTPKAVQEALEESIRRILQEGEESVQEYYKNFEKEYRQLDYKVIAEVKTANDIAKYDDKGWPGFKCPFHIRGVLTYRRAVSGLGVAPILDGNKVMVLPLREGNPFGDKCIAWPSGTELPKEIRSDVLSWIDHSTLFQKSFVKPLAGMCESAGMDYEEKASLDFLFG
Experiment: Counter-screen against bacteriophage T4 DNA polymerase
Type: biochemical
Conditions: DRC-2; read at 180'; concentration 2.5
Respond with the bare value in %.

Consider the following illustrative entries.
COMPOUND | UNIT_DESCRIPTOR | % inhibition T4 180' 2.5
Cc1nc(C)c2c(n1)N(CC1CCCCC1)C(=O)CC2 | % | -0.169
O=C1CSC2=NC3=C(CCc4ccccc43)C(c3cccs3)N12 (stereo not drawn) | % | 24

Value lookup for % inhibition T4 180' 2.5; key = O=C(c1ccccc1)N1CCc2c(nc3cc(-c4ccccc4)[nH]n3c2=O)C1 -2.79

====

Molecular target: P. falciparum apicoplast DNA polymerase (Pf-apPOL) (Plasmodium falciparum, UniProt Q8ILY1)
Assay: Fluorescence-based high-throughput DNA polymerase assay (molecular beacon), primary screen and dose-response;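 for % inhibition apPOL 180': test concentration in µM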
Format: biochemical
Conditions: DRC-1; 180'; concentration 40
Lab note: anything with % inhibition apPOL 180' at or over 40% counts as 1 (yes); the rest go in 0 (no).

COMPOUND | ASSAYED_TARGET | CLASSIFICATION
O=C(c1c[nH]c2ncccc12)N1CCCCCC1 [Molecule 51, O=C(c1c[nH]c2c1cccn2)N1CCCCCC1] | P. falciparum apicoplast DNA polymerase (Pf-apPOL) (Plasmodium falciparum, UniProt Q8ILY1) | 1 (yes)
CC(=O)Nc1cc(C(=O)NC(C)C)c2ccc(C)nc2c1 [KU0206312] | P. falciparum apicoplast DNA polymerase (Pf-apPOL) (Plasmodium falciparum, UniProt Q8ILY1) | 1 (yes)
O=[N+]([O-])c1ccc(/C=C/c2ccc3ccccc3n2)o1 [Molecule 21, O=N(=O)c1ccc(o1)/C=C/c1ccc2c(n1)cccc2] | P. falciparum apicoplast DNA polymerase (Pf-apPOL) (Plasmodium falciparum, UniProt Q8ILY1) | 1 (yes)

For this compound, is measured % inhibition apPOL 180' 40% or higher? CCOc1ccccc1-c1nc(-c2ccc(=O)[nH]c2)no1 [Molecule 76, CCOc1ccccc1c1onc(n1)c1ccc(=O)[nH]c1] 0 (no)

For this compound, is measured % inhibition apPOL 180' 40% or higher? O=C(NNC(=O)C(F)(F)Sc1ccccc1)c1ccsc1 [Molecule 68, O=C(C(Sc1ccccc1)(F)F)NNC(=O)c1cscc1] 0 (no)

For this compound, is measured % inhibition apPOL 180' 40% or higher? COc1ccc2c(c1)C(c1ccccc1OC)CC(=O)O2 (stereo not drawn) [Molecule 38, COc1ccc2c(c1)C(CC(=O)O2)c1ccccc1OC] 1 (yes)

For this compound, is measured % inhibition apPOL 180' 40% or higher? CN(C)C=C1SCc2ccccc2C1=O [Molecule 77, CN(C=C1SCc2c(C1=O)cccc2)C] 0 (no)

For this compound, is measured % inhibition apPOL 180' 40% or higher? CCOC(=O)C1=C2c3cc(OC)c(OC)cc3CC(C)(C)N2C(=O)C1=O [KU0193659] 1 (yes)

For this compound, is measured % inhibition apPOL 180' 40% or higher? O=C(CSc1nnc(-c2ccco2)[nH]1)c1ccc(Cl)cc1 [KU0029065] 1 (yes)

For this compound, is measured % inhibition apPOL 180' 40% or higher? Oc1cccc2ccc(/C=C/c3ccc4c(c3)OCO4)nc12 [KU0025984] 1 (yes)

For this compound, is measured % inhibition apPOL 180' 40% or higher? O=c1cc(-c2ccccc2)oc2c(O)c(O)ccc12 [Molecule 84, Oc1ccc2c(c1O)oc(cc2=O)c1ccccc1] 0 (no)

For this compound, is measured % inhibition apPOL 180' 40% or higher? Cl.NC(CO)C(=O)NNCc1ccc(O)c(O)c1O (stereo not drawn) [KU0260493] 1 (yes)

For this compound, is measured % inhibition apPOL 180' 40% or higher? Cc1ncc(CSc2nc(C(C)(C)C)cs2)c(CO)c1O [KU0264007] 0 (no)

For this compound, is measured % inhibition apPOL 180' 40% or higher? O=C1C(=Cc2ccccc2O)Oc2ccc(O)cc21 [KU0196475] 1 (yes)

For this compound, is measured % inhibition apPOL 180' 40% or higher? O=C1C(=Cc2ccncc2)Oc2c1ccc1c2CN(Cc2ccc3c(c2)OCO3)CO1 [KU0199357] 1 (yes)

For this compound, is measured % inhibition apPOL 180' 40% or higher? Cc1nn(CC(=O)NCCSCc2ccco2)c(C)c1Br [KU0267182] 0 (no)

For this compound, is measured % inhibition apPOL 180' 40% or higher? Cc1ccc(C(=O)/C=C/C=C/C=C/N(C)C)o1 [Molecule 96, CN(/C=C/C=C/C=C/C(=O)c1ccc(o1)C)C] 1 (yes)

For this compound, is measured % inhibition apPOL 180' 40% or higher? COc1ccc2c(c1)CCc1c-2nc2ccc(Br)cc2c1C(=O)O [KU0059417] 1 (yes)

For this compound, is measured % inhibition apPOL 180' 40% or higher? O=C(Nc1nnc(-c2ccno2)o1)c1ccc2c(c1)OCO2 [KU0171343] 0 (no)

For this compound, is measured % inhibition apPOL 180' 40% or higher? O=C(O)c1cccc(N2N=C(C(F)(F)F)/C(=C/c3ccc(-c4ccccc4[N+](=O)[O-])o3)C2=O)c1 [Molecule 100] 1 (yes)

For this compound, is measured % inhibition apPOL 180' 40% or higher? O=C(Cn1ccc2c(=O)[nH]ccc21)Nc1cccc(Cl)c1 [Molecule 23, O=C(Cn1ccc2c1cc[nH]c2=O)Nc1cccc(c1)Cl] 1 (yes)

For this compound, is measured % inhibition apPOL 180' 40% or higher? COc1ccc(C(=O)N2CCc3c(nc4cc(-c5ccccc5Cl)[nH]n4c3=O)C2)cn1 [Molecule 26] 1 (yes)

For this compound, is measured % inhibition apPOL 180' 40% or higher? CSC(C)C(=O)C=CN(C)C (stereo not drawn) [Molecule 71, CSC(C(=O)C=CN(C)C)C] 0 (no)

For this compound, is measured % inhibition apPOL 180' 40% or higher? O=[N+]([O-])/C=C/c1ccc(-c2ccc(Br)cc2)o1 [Molecule 31, O=N(=O)/C=C/c1ccc(o1)c1ccc(cc1)Br] 1 (yes)

For this compound, is measured % inhibition apPOL 180' 40% or higher? CO/N=C(\C(=O)N[C@@H]1C(=O)N2C(C(=O)[O-])=C(CSc3nc(=O)c([O-])nn3C)CSC12)c1csc(N)n1.[Na+].[Na+] (stereo partly drawn) [Molecule 83] 0 (no)

For this compound, is measured % inhibition apPOL 180' 40% or higher? COc1ccc(C)cc1NC(=O)Cn1ccc2c(=O)[nH]ccc21 [Molecule 15, COc1ccc(cc1NC(=O)Cn1ccc2c1cc[nH]c2=O)C] 1 (yes)

For this compound, is measured % inhibition apPOL 180' 40% or higher? O=C(CSc1nc2ccccc2s1)Nc1ncc([N+](=O)[O-])s1 [KU0019667] 1 (yes)
